System: Salmonella enterica subsp. enterica serovar Typhi str. CT18
Assay: Antimicrobial activity against Salmonella typhi at 100 ug/ml after 24 hrs by agar diffusion method
Assay type: functional
Details: read-out: IZ
zone of inhibition at 100 µg/mL values by entry

SMILES_INPUT: CN1C[C@@H](c2ccc(Br)cc2)[C@@]2(CCc3c([nH]c4ccccc34)C2=O)[C@]12C(=O)c1cccc3cccc2c13
zone of inhibition at 100 µg/mL: 30 mm
//
SMILES_INPUT: COc1ccc([C@@H]2CN(C)[C@@]3(C(=O)Nc4ccccc43)[C@]23CCc2c([nH]c4ccccc24)C3=O)cc1
zone of inhibition at 100 µg/mL: 21 mm
//
SMILES_INPUT: CN1C[C@@H](c2ccc([N+](=O)[O-])cc2)[C@@]2(CCc3c([nH]c4ccccc34)C2=O)[C@]12C(=O)Nc1ccccc12
zone of inhibition at 100 µg/mL: 22 mm
//
SMILES_INPUT: CN1C[C@@H](c2ccc(Br)cc2)[C@@]2(CCc3c([nH]c4ccccc34)C2=O)[C@]12C(=O)Nc1ccccc12
zone of inhibition at 100 µg/mL: 16 mm
//
SMILES_INPUT: COc1ccc([C@@H]2CN(C)C3(C(=O)c4ccccc4C3=O)[C@]23CCc2c([nH]c4ccccc24)C3=O)cc1
zone of inhibition at 100 µg/mL: 21 mm
//
SMILES_INPUT: Cc1ccc([C@@H]2CN(C)[C@@]3(C(=O)Nc4ccccc43)[C@]23CCc2c([nH]c4ccccc24)C3=O)cc1
zone of inhibition at 100 µg/mL: 16 mm
//
SMILES_INPUT: CN1C[C@@H](c2ccc([N+](=O)[O-])cc2)[C@@]2(CCc3c([nH]c4ccccc34)C2=O)[C@]12C(=O)c1cccc3cccc2c13
zone of inhibition at 100 µg/mL: 25 mm

* * *

Test system: Salmonella enterica subsp. enterica serovar Typhi str. CT18
Experiment: Antimicrobial activity against Salmonella typhi at 75 ug/ml after 24 hrs by agar diffusion method
Type: functional
Settings: read-out: IZ
zone of inhibition at 75 µg/mL values by entry
QUANTITY_NAME: zone of inhibition at 75 µg/mL (mm)

COMPOUND: COc1ccc([C@@H]2CN(C)[C@@]3(C(=O)c4cccc5cccc3c45)[C@]23CCc2c([nH]c4ccccc24)C3=O)cc1
QUANTITY_NAME: zone of inhibition at 75 µg/mL
UNIT_NAME: mm
OBSERVED_RESULT: 18
--
COMPOUND: COc1ccc([C@@H]2CN(C)[C@@]3(C(=O)Nc4ccccc43)[C@]23CCc2c([nH]c4ccccc24)C3=O)cc1
QUANTITY_NAME: zone of inhibition at 75 µg/mL
UNIT_NAME: mm
OBSERVED_RESULT: 18
--
COMPOUND: CN(C)[C@@H]1C(O)=C(C(N)=O)C(=O)[C@@]2(O)C(O)=C3C(=O)c4c(O)cccc4[C@@](C)(O)[C@H]3C[C@@H]12 [TETRACYCLINE]
QUANTITY_NAME: zone of inhibition at 75 µg/mL
UNIT_NAME: mm
OBSERVED_RESULT: 28
--
COMPOUND: CN1C[C@@H](c2ccc([N+](=O)[O-])cc2)[C@@]2(CCc3c([nH]c4ccccc34)C2=O)[C@]12C(=O)Nc1ccccc12
QUANTITY_NAME: zone of inhibition at 75 µg/mL
UNIT_NAME: mm
OBSERVED_RESULT: 18
